test system: MS2 coat protein; experiment: apparent KD of MS2 coat protein; designed switch direction (-1 OFF switch, 1 ON switch): -1; higher = weaker reporter binding; details: input ligand: none
Assign label 1 whenever apparent KD of MS2 coat protein does not fall below 40 nM; assign label 0 whenever it does.

>  <macromolecule.sequence>
UUUUUAUAUGAAGGAUAUACUUAACAUGAGGAUCACCCAUGUGGUGUUGUGAGUGAGUGAGUUUAGUAGAAGGUCAAUGAUUCU [JMF's solution 61] (Eterna round: R96, puzzle: Exclusion NG 2)

>  <system.name>
MS2 coat protein

>  <label>
label 1

$$$$
>  <macromolecule.sequence>
UGCCUACGUGUGAGGAUAUCAAGGUUUCCACACUAUGAGAAGGUACAUGAGGAUCACCCAUGUUUAGAUGAGCC [Eternabot (L2) Solution 43] (Eterna round: R97, puzzle: Brourd's mod of Exclusion 4)

>  <system.name>
MS2 coat protein

>  <label>
label 1

$$$$
>  <macromolecule.sequence>
UGCAAUCUUAUGAUAUCUCACAUGAGGAUCACCCAUGUGCUCGUCUUAUGUUCUGUUUUGCUGUUGUCCGGCCGGCC [1st try] (Eterna round: R97, puzzle: Sensor, turn-off variant 1)

>  <system.name>
MS2 coat protein

>  <label>
label 0

$$$$
>  <macromolecule.sequence>
ACAAACACGGCAGGAUAUCCUCGCAUAUGAUAGGUUGUUCUCCACAUGAGGAUCACCCAUGUCGAGGAGAAGGGCCAUCAUUCU [Tibema] (Eterna round: R96, puzzle: Exclusion NG 2)

>  <system.name>
MS2 coat protein

>  <label>
label 0

$$$$
>  <macromolecule.sequence>
UGAGUGCUGCGAGGAUAUACAUGAGGAUCACCCAUGUGGUGGUGUGAGGCUUUGCCUCACACCAUGUAGAAGGCGCAGUACUCU [JL ENG2 1.08] (Eterna round: R96, puzzle: Exclusion NG 2)

>  <system.name>
MS2 coat protein

>  <label>
label 0

$$$$
